experiment: Cell Viability - LYMP1-003 - Assay at 24 hr (AID 963); settings: LYMP1-003 lymphoblastoid cell viability; series mostly up to 92.2 µM
The source made the active and inactive calls. The call rests on the fitted dose curve; in most records, active means well fitted cell-killing curve with a large enough effect; inconclusive means small, poorly fitted or top-dose-only effect; inactive means flat fitted curve, though single readings scatter.
Reply using exactly one outcome from active, inactive

Worked set:
[
  {
    "compound": "OC(CCl)CCl",
    "class_label": "inactive"
  },
  {
    "compound": "COc1ccc(N)c(C)c1",
    "class_label": "inactive"
  },
  {
    "compound": "Nc1cccc(S(=O)(=O)O)c1",
    "class_label": "inactive"
  }
]

Asked: Per the records of this test, what outcome belongs to CC(C)(C)OCC1CO1 (stereo not drawn) ?
Given back: inactive

Asked: Per the records of this test, what outcome belongs to "Cc1cc(C)cc(O)c1" ?
Given back: inactive

Asked: Per the records of this test, what outcome belongs to "CC(=O)CCc1ccccc1" ?
Given back: inactive

Asked: Per the records of this test, what outcome belongs to "CCNc1cc(O)ccc1C" ?
Given back: inactive

Asked: Per the records of this test, what outcome belongs to "CCOC(=O)OCC" ?
Given back: inactive
